- Test system: HCT-116 colon
- method.description: NCI tumour cell line growth inhibition, 48 h
measurement.type: TGI

Use these answered entries as a reference point.
>  <compound>
CSc1nc(NC2OCC(OC(C)=O)C(OC(C)=O)C2OC(C)=O)c(N=CC=Nc2c(NC3OCC(OC(C)=O)C(OC(C)=O)C3OC(C)=O)nc(SC)n(C)c2=O)c(=O)n1C (stereo not drawn)

>  <result.value>
> 100 µM

$$$$
>  <compound>
CCCCOC(=O)CN1C(=O)c2ccccc2C1=O

>  <result.value>
> 100 µM

$$$$

With those in mind, consider the next compound.
# input Fill in TGI for record `CC(C)=CCNc1ncnc2c1ncn2CCC(=O)OC(C)(C)C`
# output > 100 µM
